Tested on: HT-29
Protocol details: Cytotoxicity against human HT-29 cells after 72 hrs by crystal-violet staining-based spectrophotometric analysis
Format: functional, cell-based
Test parameters: HT-29, 72 h
pIC50: −log10 of the molar value.
Recorded pIC50 for the following compounds
Value kind: pIC50

> print(dat)
                                        smi  assay.result
1  NCCNCCCCn1c(=O)c2cc([N+](=O)[O-])ccc2c2cnc3cc4c(cc3c21)OCO4          4.39
2  NCCNCCCn1c(=O)c2cc([N+](=O)[O-])ccc2c2cnc3cc4c(cc3c21)OCO4          4.65
3  NCCNCCCCCCn1c(=O)c2cc([N+](=O)[O-])ccc2c2cnc3cc4c(cc3c21)OCO4          4.51
4  NCCNCCn1c(=O)c2cc([N+](=O)[O-])ccc2c2cnc3cc4c(cc3c21)OCO4          4.37
5  NCCNCCCCCn1c(=O)c2cc([N+](=O)[O-])ccc2c2cnc3cc4c(cc3c21)OCO4          4.32
